The reported numbers originate from PubChem BioAssay (NCI).

# Tested on: MCF7 breast
# protocol.text: NCI-60 one-dose screen, 48 h
# condition.details: 10 µM unless noted
This is part of a sample that, as a whole, favours compounds with a hit. Of some 83,000 tested, about 20% had one in any assay. The source made the active and inactive calls. The calls were made as follows: active = growth percent below 10; inactive = the rest.
Please answer using one outcome listed in yes (1) (active), no (0) (inactive)

query: Query: recorded result category for COc1ccc(-c2c(C(N)=O)c(N)n(Cc3nc4ccccc4[nH]3)c(=O)c2C#N)c(OC)c1 in this test
result: no (0)

query: Given C(=N\Nc1nc(N/N=C/c2ccc3c(c2)OCO3)nc(N2CCCCC2)n1)/c1ccc2c(c1)OCO2 , state the outcome it received in this test.
result: no (0)

query: What call does the record list for Cc1ncn(-c2ccc(/C=N/Nc3ccnc4cc(Cl)ccc34)cc2)c1C ?
result: yes (1)

query: # outcome recorded in this test, key = CN1CCN(Cc2ccc(NC(=O)c3cncc(C#Cc4cnc5ccc(N)nn45)c3)cc2C(F)(F)F)CC1
result: yes (1)

query: So what was the verdict on O=S(=O)(NCCCNc1nccc(-c2[nH]c(-c3ccccc3)nc2-c2ccc(F)c(O)c2)n1)c1cccc2ccccc12 in this test?
result: no (0)

query: Write down the call the test reported for this compound. Item: Cc1ccccc1Nc1nc(SC(C)C)nc(-c2ccccc2)c1C#N
result: no (0)

query: For COc1ccc(-c2nc(C#N)c(N3CCC(S(=O)(=O)N4CCOCC4)CC3)o2)cc1 , which call appears in the assay record?
result: no (0)

query: Which outcome did this test record for the compound N#Cc1nc(-c2ccccc2)oc1N1CCC(C2(C(F)(F)F)N=N2)CC1 ?
result: no (0)

query: Fill in: this test's call for CC1=C(C)C(=O)C(Nc2ccc3c(c2)OCO3)=C(Br)C1=O is ___
result: no (0)

query: Look up the recorded call for O=C(/C=C/c1cccc(C(F)(F)F)c1)Nc1cccc(C(F)(F)F)c1 in this test.
result: no (0)

query: Per the assay record, what outcome was assigned to O=C1Nc2cc(Cl)ccc2/C1=C\c1ccc(OCc2ccccc2)cc1 ?
result: no (0)

query: Returns: the outcome recorded for CCc1cc2c(cc1Cl)nc1c(=O)[nH]c(=O)nc-1n2CCOCC(C)(C)C in this assay.
result: no (0)

query: I would be grateful if you could indicate the recorded call for CCOC(=O)c1ccc(NC2=CC(=O)C(C)=C(C)C2=O)cc1 .
result: no (0)

query: // param item: CN(C)CCNc1ccc2ncc(C#Cc3cncc(C(=O)Nc4ccc(CN5CCN(C)CC5)c(C(F)(F)F)c4)c3)n2n1 ; yields the recorded call
result: yes (1)

query: Please indicate how the test categorized COC(=O)CNC(=O)c1cccc(-c2cc(=O)c3c(OC)c(OC)c(OC)cc3o2)c1 .
result: no (0)

query: What was the test verdict on CCn1c2ccc(/C=N/N(C)S(=O)(=O)CCN(C)C)cc2c2cc(/C=N/N(C)S(=O)(=O)CCN(C)C)ccc21 ?
result: no (0)

query: Hey, what did the test say about COc1ccc2sc(NC(=O)CCCCCCNC(=O)C(O)(O)C(F)(F)F)nc2c1 ?
result: yes (1)

query: Given CC(C)[C@H]1c2[nH]c3ccccc3c2C[C@H]2C(=O)N(CCCCCCC(=O)NO)CC(=O)N12 , state the outcome it received in this test.
result: no (0)

query: Record lookup: outcome of this test for Cc1ccsc1[C@H]1c2[nH]c3ccccc3c2C[C@H]2C(=O)N(CCCCCCC(=O)NO)CC(=O)N12 ?
result: no (0)
